Tested on: Pseudomonas aeruginosa
experiment: Antibacterial activity against Pseudomonas aeruginosa at 100 ug/ml by cup-plate method
Assay type: functional
conditions: read-out: IZ
readoutName: zone of inhibition at 100 µg/mL (mm)
Numeric answer only, unit mm assumed.

// solved cases for zone of inhibition at 100 µg/mL follow
chemicalString: O=C(Nc1ccc(S(=O)(=O)Nc2ccc([N+](=O)[O-])cc2)cc1)c1cn(CCO)c2c(cc(Cl)c3ncccc32)c1=O
testTarget: Pseudomonas aeruginosa
readoutName: zone of inhibition at 100 µg/mL
measuredResult: 9
//
chemicalString: Cc1cccc(NC(=S)NC(=O)c2cn(CCO)c3c(cc(Cl)c4ncccc43)c2=O)c1
testTarget: Pseudomonas aeruginosa
readoutName: zone of inhibition at 100 µg/mL
measuredResult: 10
//
chemicalString: O=C(NC(=S)Nc1ccc(O)cc1)c1cn(CCO)c2c(cc(O)c3ncccc32)c1=O
testTarget: Pseudomonas aeruginosa
readoutName: zone of inhibition at 100 µg/mL
measuredResult: 6
//
chemicalString: Cc1cccc(NC(=S)NC(=O)c2cn(CCO)c3c(cc(O)c4ncccc43)c2=O)c1
testTarget: Pseudomonas aeruginosa
readoutName: zone of inhibition at 100 µg/mL
measuredResult: 9

Q: Return zone of inhibition at 100 µg/mL measured with Pseudomonas aeruginosa given this compound: "O=C(NC(=S)Nc1ccccc1)c1cn(CCO)c2c(cc(O)c3ncccc32)c1=O"
Ans: 10

Hello, the source for this data is ChEMBL document CHEMBL3044825, in case you need it.
